Please go through the items and note down their INHIBITION.
Test system: Plasmodium berghei
experiment.summary: Screen against P. berghei liver stage (PbLuc), transformed with Luciferase, at 10uM
Assay type: functional, HepG2
protocol.conditions: tested at 10 uM
The campaign covered roughly 69,000 compounds. About 8,600 (12%) showed an effect of 50% or more. This excerpt belongs to a sample that is enriched for strong results.
One number for each entry, in %.

Worked cases, INHIBITION given:
{"columns": ["compound", "units.symbol", "value"],
 "data": [
  ["Cc1ncsc1C(=O)N1CC[C@@H]2[C@@H](CC1)OCCN2c1cccnc1", "%", 65.1],
  ["CN(C)C(=O)CN1CC[C@H]2CN(C3CCOCC3)C[C@@H]2C1=O", "%", 30.9],
  ["OC1CCN(c2ccnc(NCCc3ccccc3Cl)n2)CC1", "%", 39.1]
]}

Answer for every listed entry: what is its INHIBITION? The entries follow.
1. CCn1ncc2c1C(COC)N(C(=O)c1cscn1)CC2 (stereo not drawn)
2. CN1CCOC[C@H]1c1nc(-c2cccc(F)c2)c[nH]1
3. c1cc(-c2c[nH]c([C@@H]3COCCN3Cc3ncc[nH]3)n2)ccn1
4. Cc1ccc(-c2c[nH]c([C@@H]3COCCN3Cc3ncc[nH]3)n2)cc1
5. CN1CCOC[C@H]1c1nc(-c2ccncc2)c[nH]1
6. CN1CCOC[C@H]1c1nc(C(C)(C)C)c[nH]1
7. CCn1ccc2ccnc(CC3CN(C(=O)Cn4ccnc4C)C3)c21

38.5
9.51
54.7
46.6
52
50.2
6.26

Batch lookup, INHIBITION per entry.
1. OC1CCN(c2ccnc(NCCN3CCc4ccccc4C3)n2)C1 (stereo not drawn)
2. O=C(c1ccncc1)N1CC[C@@H]2[C@@H](CC1)OCCN2c1cccnc1
3. CN1CCC(N2CCOC[C@H]2c2nc(C(C)(C)C)c[nH]2)CC1
4. CC(C)NC(=O)CC1COC2(CCN(Cc3ccsc3)CC2)C1 (stereo not drawn)

[8.38, 12.1, 49.5, 13.7]

Recorded values, source ChEMBL document CHEMBL4513216.
